Test: Blood serum stability, agar diffusion test with Escherichia coli TEM 1
Assay type: in vitro ADME
Conditions: sterile bovine serum (OXOID), 37° C.
Exercise: state measured half-life for each of the molecules provided.
Mention the unit after the number when you answer.

So, COCSC1=C(C(=O)[O-])N2C(=O)[C@@H](NC(=O)/C(=N\OC)c3csc(N)n3)[C@H]2SC1.[K+] ? Its half-life was 4.8 h

// half-life lookup, molecule = COCSC1=C(C(=O)[O-])N2C(=O)[C@@H](NC(=O)/C(=N\OCC(=O)[O-])c3csc(N)n3)[C@H]2SC1.[K+].[K+] , result: 2.7 h

----------
Please provide measured half-life for the entries that follow.
Test: Chemical stability, half-life of hydrolysis by UV spectroscopy
Format: physicochemical
Conditions: pH 2, physiological NaCl solution containing 0.01 N HCl, 37° C.

# half-life (compound: COCSC1=C(C(=O)O)N2C(=O)[C@@H](NC(=O)[C@H](N)c3ccccc3)[C@H]2SC1 [Cephalosporin 1c] ) is 7.12 days

For record COCSC1=C(C(=O)[O-])N2C(=O)[C@@H](NC(=O)/C(=N\OC)c3csc(N)n3)[C@H]2SC1.[K+] [Cephalosporin 1a] the listed half-life is 15.6 days

// recorded half-life for COCSC1=C(C(=O)[O-])N2C(=O)[C@@H](NC(=O)/C(=N\OCC(=O)[O-])c3csc(N)n3)[C@H]2SC1.[K+].[K+] [Cephalosporin 1b] : 16.6 days
